Catalogue of Kd values
- test target: Recombinant human his-tagged IGF 1R extracellular domain protein (human) (UniProt P08069)
- assay overview: SPR, captured IgG, IGF-1R ECD-his analyte, dissociation pH 7.4
Field: numeric (nM). Do not append units.

{"binder": "VRDN-02509 (antibody, V domains shown) VH: EVQLVQSGGGLVKPGGSLRLSCAASGFTFSSFAHHWVRQAPGKGLEWISVIDTRGATYYADSVKGRFTISRDNAKNSLYLQMNSLRAEDTAVYYCARLGNFYYGMDVWGQGTTVTVSS VL: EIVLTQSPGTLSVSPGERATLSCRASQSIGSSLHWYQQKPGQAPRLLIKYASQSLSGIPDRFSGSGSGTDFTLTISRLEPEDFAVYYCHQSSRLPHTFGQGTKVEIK", "Kd, nM": 0.285}

// next entry
Exercise: Given the binder VRDN-02541 (antibody, V domains shown) VH: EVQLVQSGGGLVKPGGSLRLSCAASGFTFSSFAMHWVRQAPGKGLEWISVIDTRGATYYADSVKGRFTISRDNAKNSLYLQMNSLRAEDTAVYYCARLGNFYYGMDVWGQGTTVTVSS VL: EIVLTQSPGTLSVSPGERATLSCRASQSIGSSLHWYQQKPGQAPRLLIKYAHQSLSGIPDRFSGSGSGTDFTLTISRLEPEDFAVYYCHQSSRLPHTFGQGTKVEIK , write its reported Kd.
Key: 0.00654

Cited source: patent US20240343814A1
